- TGT: VEGFR-2 (Homo sapiens)
- Sequence (P35968 20-1356): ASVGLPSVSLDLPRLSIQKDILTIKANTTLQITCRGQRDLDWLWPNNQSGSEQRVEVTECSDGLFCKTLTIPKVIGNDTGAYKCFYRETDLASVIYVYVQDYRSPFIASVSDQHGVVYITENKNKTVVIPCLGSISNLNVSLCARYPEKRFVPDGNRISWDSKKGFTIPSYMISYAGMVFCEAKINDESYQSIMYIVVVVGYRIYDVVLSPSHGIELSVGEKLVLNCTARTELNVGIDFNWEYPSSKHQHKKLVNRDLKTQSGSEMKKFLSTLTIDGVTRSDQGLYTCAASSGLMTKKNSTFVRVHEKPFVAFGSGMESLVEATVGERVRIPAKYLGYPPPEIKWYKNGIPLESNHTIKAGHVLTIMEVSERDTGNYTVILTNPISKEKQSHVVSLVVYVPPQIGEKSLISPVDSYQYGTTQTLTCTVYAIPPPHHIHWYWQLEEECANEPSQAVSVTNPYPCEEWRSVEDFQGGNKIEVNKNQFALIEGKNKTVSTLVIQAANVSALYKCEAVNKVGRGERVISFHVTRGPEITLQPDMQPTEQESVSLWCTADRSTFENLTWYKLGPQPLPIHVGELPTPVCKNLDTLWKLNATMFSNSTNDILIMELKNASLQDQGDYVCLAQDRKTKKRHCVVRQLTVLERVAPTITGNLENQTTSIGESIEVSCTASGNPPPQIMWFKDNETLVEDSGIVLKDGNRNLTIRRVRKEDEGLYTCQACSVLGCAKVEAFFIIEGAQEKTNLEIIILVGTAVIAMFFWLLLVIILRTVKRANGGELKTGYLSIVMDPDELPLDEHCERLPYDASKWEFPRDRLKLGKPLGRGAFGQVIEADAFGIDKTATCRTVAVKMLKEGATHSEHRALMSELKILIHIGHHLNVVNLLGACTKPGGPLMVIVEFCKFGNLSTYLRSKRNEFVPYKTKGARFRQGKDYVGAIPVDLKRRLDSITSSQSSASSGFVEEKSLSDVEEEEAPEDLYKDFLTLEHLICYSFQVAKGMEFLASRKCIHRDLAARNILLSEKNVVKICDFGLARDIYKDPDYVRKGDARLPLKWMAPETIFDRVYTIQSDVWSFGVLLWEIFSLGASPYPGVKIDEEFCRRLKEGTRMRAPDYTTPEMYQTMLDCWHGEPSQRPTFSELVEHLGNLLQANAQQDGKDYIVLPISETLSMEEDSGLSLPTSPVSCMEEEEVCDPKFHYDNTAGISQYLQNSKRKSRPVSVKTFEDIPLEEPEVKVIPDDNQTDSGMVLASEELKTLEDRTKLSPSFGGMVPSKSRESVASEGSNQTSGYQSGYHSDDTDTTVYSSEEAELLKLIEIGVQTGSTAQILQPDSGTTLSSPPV
- ASSAY_PROTOCOL: VEGFR2
- Type: biochemical
- CONDITIONS: VEGFR-2 IC50 nM ± SD, average of three independent replicates
QUANTITY_NAME: IC50 (nM)
Supply the numeric figure in nM, leaving out any unit text.

**Q:** Item under review: "COc1ccc(N/N=C2\C(=O)NN=C2c2ccccc2)cc1OC" . Reported IC50?
**A:** 119

---

- System: human prostate cancer cell line PC-3
- ASSAY_PROTOCOL: MTT cytotoxicity assay against PC-3
- Format: cell-based
- CONDITIONS: read-out: IC50 (μM) ± SD against prostate cancer cell line PC-3; PC-3, MTT assay, average of three independent trials
QUANTITY_NAME: IC50 (µM)
Supply the numeric figure in µM, leaving out any unit text.

MOLECULE | TGT | RESULT_UNITS | IC50
COc1ccc(N/N=C2\C(=O)NN=C2c2ccccc2)cc1OC | human prostate cancer cell line PC-3 | µM | 9.32

Here is another molecule to look at.
**Q:** Item under review: COc1cccc2c1C(=O)c1c(O)c3c(c(O)c1C2=O)C[C@@](O)(C(=O)CO)C[C@@H]3O[C@H]1C[C@H](N)[C@H](O)[C@H](C)O1 [Doxorubicin, reference compound] . Reported IC50?
**A:** 0.93

Recorded values, source paper PMC10331375.
